System: MS2 coat protein
Procedure Details: apparent KD of MS2 coat protein; designed switch direction (-1 OFF switch, 1 ON switch): 1; higher = weaker reporter binding
Experimental Parameters: input ligand: FMN 200 uM
Answer each item with its documented apparent KD of MS2 coat protein.
Provide the reading as a plain figure in nM.

Sample AUGGUGCAGGUACAGGAUAUGUUGCUCGUAACAUGAGGAUCACCCAUGUACCUAUGAGAUUAAAUGCAGAAGGGUGCACACCACG [Quorra] (Eterna round: R96, puzzle: Same State 2) — what was its apparent KD of MS2 coat protein? 62.8

Moving on to CGUGAACAUGAGGAUCACCCAUGUGAAAAACAUAGAGGAUAUGUCACGUGAGUGUAAAAGACAGAAGGCUAUCGUG [Mod 3 of Round 1 starryjess' Mod pf Nando] (Eterna round: R96, puzzle: Same State 1) 38.1

Please answer likewise for UUACUCAUGUAAGGAUAUGCAGCCGAAACGGCUGCAGAAGGUACUAAAAUACAUGAGGAUCACCCAUGUCUUUUUAAUUUAGAC [Mat - Same State NG 1 - JL mod - D83] (Eterna round: R96, puzzle: Same State NG 1) 58.4

# repeat for AUUAUUUAUGCAGGAUAUGAUUAACAUGAGGAUCACCCAUGUGGUGUUGUGAGUAAGGAGAGUGAUCAGAAGGGCAUUUUUGUU [JMF's solution 53] (Eterna round: R96, puzzle: Same State NG 2) 992

----------
System: MS2 coat protein
Procedure Details: apparent KD of MS2 coat protein, switch OFF state (with FMN for OFF switches, without FMN for ON switches); designed switch direction (-1 OFF switch, 1 ON switch): 1; higher = weaker reporter binding
Experimental Parameters: FMN input: 0 or 200 uM; Eterna round: R93 (includes R88 designs)
Attribute Measured: apparent KD of MS2 coat protein (nM)
Value expressed in nM; do not type the unit.

Consider the sequence shown here: GGAACUACAGAUCAGGAUAUGUUUGGGUAAACAUGAGGAUCACCCAUGUGCACCCGAUACACAGGACAGAAGGGAUAACGUGGGA [Maondior] What is its recorded apparent KD of MS2 coat protein? 20.2

Same thing, different sequence: AAAAGACAUGAGGAUCACCCAUGUGAAAACAUACAAGGAUAUGUGUGGAAACCGUACUAUACAGAAGGUGUAUGUC [SS1 - 85] 28.5

// same read-out, input: AAAUAACAUGAGGAUCACCCAUGUUGCAACGGUACAGGAUAUGUGGGUGAAAAUAGCAUGGCAGAAGGGUAGUGUA [SameState1 Malc#29] 67.8

----------
Test system: MS2 coat protein
Procedure Details: apparent KD of MS2 coat protein; designed switch direction (-1 OFF switch, 1 ON switch): -1; higher = weaker reporter binding
Experimental Parameters: Eterna round: R95; input ligand: microRNA oligo, concentration not stated
Classify by measured apparent KD of MS2 coat protein: 1 (yes) if it is equal to or exceeds 20 nM, 0 (no) if it is smaller.

Please tell me: is the sequence GCAUUUGAGCAGGAUAUAGCCUGAACAUAAUGGUUAGAAGGGCUCACAUGAGGAUCACCCAUGUGGUGUCCAAA [Inratete] (puzzle: Exclusion 6) at or over 20 nM in terms of apparent KD of MS2 coat protein? 0 (no)

Can you handle UAUUCUAGAUAGGAUAUACUUUUUUUUUUUUUCGUAGAAGGAUCUACAUGAGGAUCACCCAUGUUUUCAGCAGU [JR_E6_Sub012] (puzzle: Exclusion 6) next? 1 (yes)

Quick one: UAAAAGCUAGGAUAUACAUGAGGAUCACCCAUGUCACGGGUGCCACACCGAAAGGUGCGUAGAAGGAGCCCAAA [Orrecedi] (puzzle: Exclusion 3) 1 (yes)

And then AAUGUCUGAGGAUAUCGAAUAGUGUACAUGAGGAUCACCCAUGUUUUUAUUAGUAUAUUACGAGAAGGCAGUGGAA [JR_E5_Sub086] (puzzle: Exclusion 5) , what is it? 0 (no)

Further, for CUUUUGUGAGGAUAUCAGUAGUAAAAAAAUAAAAUUAUUACUGAGAAGGCACAUGAGGAUCACCCAUGUUCCUC [salish99_ex4_r3_028] (puzzle: Exclusion 4) ? 1 (yes)

// repeat for UUUAAUUUUUUUUUUUUACAAGCUUUUUGCUCGUCUUAUACAUGAGGAUCACCCAUGUAAGUGGAGGGUAAAUUAUC [JMF 87] (puzzle: Sensor v3, turn-off variant 2) and report 1 (yes)
